- measurement.target: XIAP BIR-3 (Homo sapiens, UniProt P98170)
- Construct: 40 nM of the respective IAP BIR3
- Sequence (P98170 241-356 limits assumed): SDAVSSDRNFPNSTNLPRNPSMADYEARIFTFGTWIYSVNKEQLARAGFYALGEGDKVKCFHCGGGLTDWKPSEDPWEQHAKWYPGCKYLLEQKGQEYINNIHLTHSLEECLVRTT
- protocol.notes: Fluorescence polarization binding affinity to XIAP BIR-3 (competition with AbuRPF-K(5-Fam)-NH2)
- conditions.used: 5 nM labeled peptide, 40 nM BIR3, 15 min at RT, pH 7.5; reported as ranges
Reported values of Kd for individual entries

In: Which Kd value belongs to CN[C@@H](C)C(=O)N[C@H](C(=O)N1CC[C@@H]2[C@H]1[C@@H](c1c[nH]c3cc(F)ccc13)CN2Cc1nccn1C)C1CCCCC1 ?
Out: < 100 nM

In: Do the same for CN[C@@H](C)C(=O)N[C@H](C(=O)N1CC[C@H]2NC[C@H](c3c[nH]c4cc(F)ccc34)[C@H]21)C1CCCCC1 please
Out: < 100 nM

In: Do the same for CN[C@@H](C)C(=O)N[C@@H](COC)C(=O)N1CC[C@@H]2[C@H]1[C@@H](c1c[nH]c3cc(F)ccc13)CN2S(C)(=O)=O please
Out: < 100 nM

In: Do the same for CN[C@@H](C)C(=O)N[C@@H](CO)C(=O)N1CC[C@@H]2[C@H]1[C@@H](c1c[nH]c3cc(F)ccc13)CN2C(C)=O please
Out: < 100 nM

In: Do the same for CN[C@@H](C)C(=O)N[C@H](C(=O)N1CC[C@@H]2[C@H]1[C@@H](c1c[nH]c3ccc(F)cc13)CN2C(C)=O)[C@@H](C)O please
Out: < 100 nM

Continuing:
In: Which Kd value belongs to CN[C@@H](C)C(=O)N[C@H](C(=O)N1CC[C@@H]2[C@H]1[C@@H](c1c[nH]c3ccccc13)CN2C1CCCCC1)[C@@H](C)OC ?
Out: 1000 to 10000 nM

* * *

- measurement.target: XIAP BIR-3 (Homo sapiens, UniProt P98170)
- Construct: 40 nM of the respective IAP BIR3
- protocol.notes: Fluorescence polarization binding affinity to XIAP BIR-3 (competition with AbuRPF-K(5-Fam)-NH2)
- conditions.used: 5 nM labeled peptide, 40 nM BIR3, 15 min at RT, pH 7.5; reported as ranges
pKd: −log10 of the molar value.
Reported values of pKd for individual entries

In: Which pKd value belongs to CN[C@@H](C)C(=O)N[C@H](C(=O)N1CC[C@@H]2[C@H]1[C@H](c1c[nH]c3cc(F)ccc13)CN2S(C)(=O)=O)[C@@H](C)O ?
Out: < 5.00

In: Do the same for CN[C@@H](C)C(=O)N[C@H](C(=O)N1CC[C@@H]2[C@H]1[C@@H](c1c[nH]c3cc(F)ccc13)CN2Cc1ccccc1)[C@@H](C)O please
Out: 6.00 to 7.00

Please examine the following record next.
In: Which pKd value belongs to CN[C@@H](C)C(=O)N[C@@H](CO)C(=O)N1CC[C@@H]2[C@H]1[C@@H](c1c[nH]c3cc(F)ccc13)CN2S(C)(=O)=O ?
Out: > 7.00

* * *

Reported values of CC50 for individual entries
- System: SK-OV-3 cells
- protocol.notes: Growth inhibition of ovarian cancer cell line SK-OV-3 (MTT assay, cell survival)
- Format: cell-based
- conditions.used: Homo sapiens, drug concentration that results in 50% cell survival, 72 hrs incubation, reported as ranges

In: Which CC50 value belongs to CN[C@@H](C)C(=O)N[C@@H](COC)C(=O)N1CC[C@@H]2[C@H]1[C@@H](c1c[nH]c3cc(F)ccc13)CN2S(C)(=O)=O ?
Out: 100 to 1000 nM

In: Do the same for CN[C@@H](C)C(=O)N[C@H](C(=O)N1CC[C@@H]2[C@H]1[C@@H](c1c[nH]c3cc(F)ccc13)CN2Cc1cccnc1)C1CCCCC1 please
Out: 100 to 1000 nM

In: Do the same for CN[C@@H](C)C(=O)N[C@H](C(=O)N1CC[C@@H]2[C@H]1[C@H](c1c[nH]c3cc(F)ccc13)CN2S(C)(=O)=O)C(C)(C)C please
Out: > 10000 nM

Continuing:
In: Which CC50 value belongs to CC[C@H](NC(=O)[C@H](C)NC)C(=O)N1CC[C@@H]2[C@H]1[C@H](c1c[nH]c3cc(F)ccc13)CN2Cc1ccccc1 ?
Out: 1000 to 10000 nM

Where these numbers come from: patent US8399683B2
